Give measured CC50 for each item. Keep answers brief.
- Test system: MT4
- TEST: Cytotoxicity against mock infected human MT4 cells by MTT assay
- Assay type: toxicity, cell-based

Req: Suppose we examine the compound "Cc1ccc(NC(=O)c2cccc(C(=O)N[C@@H](Cc3ccccc3)C(=O)N(C)c3ccc4scnc4c3)c2)cc1" ; what CC50 value has been reported?
Resp: > 228 µM

Req: Consider next the compound "CN(C(=O)[C@H](Cc1ccccc1)NC(=O)c1cccc(C(=O)NC2CCN(C(=O)OC(C)(C)C)CC2)c1)c1ccc2scnc2c1" in the same way.
Resp: 29.3 µM

Req: Consider next the compound "CN(C(=O)[C@H](Cc1ccccc1)NC(=O)c1cccc(C(=O)Nc2cccc(F)c2)c1)c1ccc2scnc2c1" in the same way.
Resp: > 226 µM

Req: Consider next the compound "CN(C(=O)[C@H](Cc1ccccc1)NC(=O)c1cccc(C(=O)Nc2ccc(OC(F)(F)F)cc2)c1)c1ccc2scnc2c1" in the same way.
Resp: 118 µM

Req: Consider next the compound "CN(C(=O)[C@H](Cc1ccccc1)NC(=O)c1cccc(C(=O)Nc2ccc(Br)cc2)c1)c1ccc2scnc2c1" in the same way.
Resp: > 204 µM

----------
- TEST: in vitro
- EXPERIMENTAL CONTEXT: human, liver microsomes
Give measured microsomal CLint for each item. Keep answers brief.
Please state the figure in µL/min/mg; there is no need to write the unit.

Req: Suppose we examine the compound "O=C(O)Cc1ccccc1Nc1c(Cl)cccc1Cl" ; what microsomal CLint value has been reported?
Resp: 372

Req: Consider next the compound "C[C@]12CC[C@H]3[C@@H](CCC4=CC(=O)CC[C@@]43C)[C@@H]1CC[C@@H]2O" in the same way.
Resp: 82.8

Data credit: ChEMBL document CHEMBL5131381
